test_description: Dual polarization interferometry of protein adsorption to immobilized bilayer
Type: binding
cond: injection concentration not stated
readout_label: Adsorption/binding to immobilized bilayers by DPI, % of wild type

Would you mind telling me what Adsorption/binding to immobilized bilayers by DPI, % of wild type value was observed for R192H: naturally-occurring α-TTP mutant associated with heritable mild vitamin E deficiency in humans (protein, UniProt P49638 1-278, looked up, variant R192H) Alpha-tocopherol transfer …: MAEARSQPSAGPQLNALPDHSPLLQPGLAALRRRAREAGVPLAPLPLTDSFLLRFLRARDFDLDLAWRLLKNYYKWRAECPEISADLHPRSIIGLLKAGYHGVLRSRDPTGSKVLIYRIAHWDPKVFTAYDVFRVSLITSELIVQEVETQRNGIKAIFDLEGWQFSHAFQITPSVAKKIAAVLTDSFPLKVHGIHLINEPVIFHAVFSMIKPFLTEKIKERIHMHGNNYKQSLLQHFPDILPLEYGGEEFSMEDICQEWTNFIMKSEDYLSSISESIQ ?
~ 150%
